assay: CCTE_Shafer_MEA_acute_interburst_interval_mean: CCTE's Neural Acute Assay for Mean Interburst Interval, Shafer Lab (AID 2284016);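 also: percent change of mean interburst interval versus each well's own pre-dose baseline; curves fitted for decrease in interburst interval relative to DMSO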
Activity calls are given as the source filed them. The calls were made as follows: active = hit-call score of the fitted dose curve at least 0.9, where 1 is the maximum; inactive = score below 0.9.
Reply using exactly one outcome from yes (1) for active, no (0) for inactive

The following compounds have reported results that may help.
# input # fetch the recorded call for `CCCCCCCCCCCC` here
# output no (0)

# input Now consider `Oc1ccc(Cc2ccccc2O)cc1` and answer again.
# output no (0)

# input Now consider `CCCCC=O` and answer again.
# output no (0)

# input Now consider `CN(C)CCOC(c1ccccc1)c1ccccc1` and answer again.
# output yes (1)

Continuing:
# input # fetch the recorded call for `OCC(CO)(CBr)CBr` here
# output no (0)

# input Now consider `O=C1NS(=O)(=O)c2ccccc21` and answer again.
# output no (0)

# input Now consider `N=C(N)c1ccc(OCCCCCOc2ccc(C(=N)N)cc2)cc1` and answer again.
# output no (0)
